Assay read-out log10(GI50); system under study: HCT-15.
Quantity kind: log10(GI50) (log10 of the value in µM)

c1ccc(-c2cc3[nH]c4ccccc4[nH]c-3cc(-c3ccccc3)nn2)cc1: 1.94
O=C(/C=C\Nc1ccccc1O)C(Cl)(Cl)Cl: 1.59
O=C1Nc2cccc3cc(NCC(O)CCl)cc1c23 (configuration not stated): 1.69
N#CC1=C(N)OC2=C(CSc3ccccc32)C1c1ccc(Br)cc1 (configuration not stated): 0.67
C=C1C(=O)O[C@H]2[C@H]3O[C@@H](C[C@@H]12)[C@@]1(C)CC[C@H](O1)[C@H](C)CCC[C@H]3C: 0.26
CC(=O)OC1[C@H](n2ccnc2)C[C@H]2[C@@H]3CC=C4CC(N5CCCC5)CC[C@]4(C)[C@H]3CC[C@]12C (some centres not stated): 1.33
CC1=CSC(O)(c2ccc(Cl)cc2)c2noc(=O)n21 (configuration not stated): 1.86
Cc1cc(=O)oc2cc(OC(=O)Nc3ccc(Cl)c(Cl)c3)ccc12: 1.32

* * *

- Test system: NCI/ADR-RES
- Assay name: NCI tumour cell line growth inhibition, 48 h
Active and inactive are the calls of the source. Rule as the data show it: active = GI50 up to about 1.1 µM and inactive = higher.
Entries and their measured GI50 follow.
Quantity kind: GI50

Oc1ccc(-c2cc(-c3cc(-c4ccc(O)cc4)no3)on2)cc1: > 100 µM (inactive)
CO/N=C(/C)c1cccc(Nc2nc3ccc(Cl)cc3c3[nH]c4ccccc4c23)c1: 14.3 µM (inactive)
O=c1c(C(c2cccc(C(c3c(O)oc4ccccc4c3=O)c3c(O)oc4ccccc4c3=O)c2)c2c(O)oc3ccccc3c2=O)c(O)oc2ccccc12: > 100 µM (inactive)
O=[N+]([O-])c1c2nc3n(c2cc2c1nc1n2CCC1)CCC3: > 100 µM (inactive)

* * *

- Test system: ACHN
- Assay name: NCI tumour cell line growth inhibition, 48 h
Activity calls are given as the source filed them. Cut-off read from the data, not from the text of the source: active = GI50 up to about 1.1 µM and inactive = higher.
Quantity kind: GI50

O=C(Nn1c(-c2ccccc2)nc2ccccc2c1=O)c1ccccn1: > 100 µM (inactive)
O=C(CCSC(CC(=O)c1ccc(Cl)cc1)c1ccc(Cl)cc1)Nc1ccc(Cl)cc1 (stereo not given): 14.4 µM (inactive)
COC(=O)C(Nc1ccc(OC)cc1)c1ccccc1 (stereo not given): > 100 µM (inactive)
CCNC(=O)COc1ccc(Cl)cc1Cl: > 100 µM (inactive)
CC1=CSC(O)(c2ccc(Cl)cc2)c2noc(=O)n21 (stereo not given): > 100 µM (inactive)
CC(=O)O[C@H]1CC[C@@]2(C)C(=CC[C@H]3[C@@H]4C[C@H](N5CCCC5)[C@H](OC(C)=O)[C@@]4(C)CC[C@@H]32)C1: > 100 µM (inactive)
Cc1ccccc1NC(=O)C(=O)CC(=O)c1ccc([N+](=O)[O-])cc1: > 100 µM (inactive)
COc1ccc(C2=Cc3nc2c(-c2ccccc2)c2ccc([nH]2)c(-c2ccccc2)c2nc(c(-c4ccccc4)c4ccc([nH]4)c3-c3ccccc3)C=C2)cc1: > 100 µM (inactive)
COc1cc(/C=C2\CCC/C(=C\c3ccc(OC(=O)CCCCC4CCSS4)c(OC)c3)C2=O)ccc1OC(=O)CCCCC1CCSS1 (stereo not given): > 100 µM (inactive)
O=P(O)(O)c1ccc(-c2ccc(I)cc2)cc1: > 100 µM (inactive)
Cc1cccc(C)c1NC(=O)CCC(=O)CC(=O)C(C)C: > 100 µM (inactive)
Cc1cc(NS(=O)(=O)c2ccc(Nc3c4ccccc4nc4ccc(C(=O)Nc5ccc(S(=O)(=O)N=C(N)N)cc5)cc34)cc2)no1: > 100 µM (inactive)
CCc1cccc(C)c1NC(=O)C1=C(C)NC(C)=C(C(=O)Nc2c(C)cccc2CC)C1c1ccc([N+](=O)[O-])cc1: 18.3 µM (inactive)
CC(C)C1=CC23CCC4C(C)(C(=O)O)CCCC4(C)C2CC1C1C(=O)N(c2ccc(C(=O)O)cc2)C(=O)C13 (stereo not given): > 100 µM (inactive)
Cc1ccc(NC(=O)CC/C(CC(=O)C(C)(C)C)=N\Nc2ccc([N+](=O)[O-])cc2[N+](=O)[O-])cc1C: 45.8 µM (inactive)
